# Test system: TTR
# Procedure summary: TTR editing in primary human hepatocytes transfected with Spy Cas9 protein and sgRNAs (Table 12)
# Format: cell-based
# Cond: primary human hepatocytes transfected with Spy Cas9 protein (RNP) and sgRNAs
Strand notation (5' to 3'): a small letter for the sugar, then the base; units joined by * are phosphorothioate-linked, units joined directly phosphodiester-linked; [ ] holds rarer units or linkages, { } end groups; capitals alone tell only the bases. m = 2'-O-methyl; r = 2'-OH (RNA)
Output true (1) for records whose Avg % Insert is lower than 50%, false (0) for records at or above 50%.

| Molecule | Answer label |
| --- | --- |
| G000495: TTR sgRNA modified sequence, Human, SEQ ID No. 102; guide sequence of CR003343 (nucleic acid) guide: mC*mA*mG*rArGrGrArCrArCrUrUrGrGrArUrUrCrArCrGrUrUrUrUrArGrAmGmCmUmAmGmAmAmAmUmAmGmCrArArGrUrUrArArArArUrArArGrGrCrUrArGrUrCrCrGrUrUrArUrCrAmAmCmUmUmGmAmAmAmAmAmGmUmGmGmCmAmCmCmGmAmGmUmCmGmGmUmGmCmU*mU*mU*mU | true (1) |
| G000487: TTR sgRNA modified sequence, Human, SEQ ID No. 94; guide sequence of CR003357 (nucleic acid) guide: mU*mU*mC*rUrUrUrGrGrCrArArCrUrUrArCrCrCrArGrGrUrUrUrUrArGrAmGmCmUmAmGmAmAmAmUmAmGmCrArArGrUrUrArArArArUrArArGrGrCrUrArGrUrCrCrGrUrUrArUrCrAmAmCmUmUmGmAmAmAmAmAmGmUmGmGmCmAmCmCmGmAmGmUmCmGmGmUmGmCmU*mU*mU*mU | false (0) |
| G000501: TTR sgRNA modified sequence, Human, SEQ ID No. 108; guide sequence of CR005300 (nucleic acid) guide: mU*mC*mA*rCrArGrArArArCrArCrUrCrArCrCrGrUrArGrUrUrUrUrArGrAmGmCmUmAmGmAmAmAmUmAmGmCrArArGrUrUrArArArArUrArArGrGrCrUrArGrUrCrCrGrUrUrArUrCrAmAmCmUmUmGmAmAmAmAmAmGmUmGmGmCmAmCmCmGmAmGmUmCmGmGmUmGmCmU*mU*mU*mU | false (0) |
| G000483: TTR sgRNA modified sequence, Human, SEQ ID No. 90; guide sequence of CR005298 (nucleic acid) guide: mU*mC*mC*rArCrUrCrArUrUrCrUrUrGrGrCrArGrGrArGrUrUrUrUrArGrAmGmCmUmAmGmAmAmAmUmAmGmCrArArGrUrUrArArArArUrArArGrGrCrUrArGrUrCrCrGrUrUrArUrCrAmAmCmUmUmGmAmAmAmAmAmGmUmGmGmCmAmCmCmGmAmGmUmCmGmGmUmGmCmU*mU*mU*mU | true (1) |
| G000498: TTR sgRNA modified sequence, Human, SEQ ID No. 105; guide sequence of CR003359 (nucleic acid) guide: mA*mG*mU*rGrArGrUrCrUrGrGrArGrArGrCrUrGrCrArGrUrUrUrUrArGrAmGmCmUmAmGmAmAmAmUmAmGmCrArArGrUrUrArArArArUrArArGrGrCrUrArGrUrCrCrGrUrUrArUrCrAmAmCmUmUmGmAmAmAmAmAmGmUmGmGmCmAmCmCmGmAmGmUmCmGmGmUmGmCmU*mU*mU*mU | false (0) |
